Measured values drawn from ChEMBL document CHEMBL1145781 for this set.

assay: Ratio of total concentration in liver to that of serum after 6 hr of intravenous administration to rats (n=4) at dose of 20 mg/kg; assay type: ADME, organism-based; parameters: dose 20 mg/kg, route intravenous; settings: rat
readout_type: Kp at 6 h
Returns: the value as a bare number; no unit string appended.

## Input Which Kp at 6 h is reported for this compound? "Cc1c(N2C[C@@H](F)[C@@H](C3(N)CC3)C2)c(F)c(N)c2c(=O)c(C(=O)O)cn([C@@H]3C[C@@H]3F)c12"
## Output 3.9

====

test: Solubility was determined in water; type: physicochemical
readout_type: solubility (µg/mL)
Express your answer in µg/mL, writing the number without its unit.

## Input Which solubility is reported for this molecule? "Cc1c(N2C[C@@H](F)[C@@H](C3(N)CC3)C2)c(F)c(N)c2c(=O)c(C(=O)O)cn([C@@H]3C[C@@H]3F)c12"
## Output 291

## Input Which solubility is reported for this molecule? "Cc1c(N2CC[C@@H](C3(N)CC3)C2)c(F)c(N)c2c(=O)c(C(=O)O)cn([C@@H]3C[C@@H]3F)c12"
## Output 39

## Input Which solubility is reported for this molecule? Cc1c(N2CC[C@@H](CN)C2)c(F)c(N)c2c(=O)c(C(=O)O)cn(C3C[C@@H]3F)c12 (single isomer, unassigned)
## Output 404

## Input Which solubility is reported for this molecule? "Cc1c(N2CC[C@@H]([C@H](C)N)C2)c(F)c(N)c2c(=O)c(C(=O)O)cn([C@@H]3C[C@@H]3F)c12"
## Output 95

====

For each of the compounds below, state its MIC90.
test system: Staphylococcus aureus; experiment: Antibacterial activity was determined against clinically isolated Levofloxacin-methicillin resistant Staphylococcus aureus (LVFX-r MRSA) strains (74 strains); format: functional
*1 amine or outer side, *2 acyl side, *3 side chain or, on linkers, in order; H or OH if unused. Where a SMILES comes first, the peptide text is derived from it. Bridges are numbered along the chain shown (N, C = ends). [ ]: non-standard residue; d: D form. The star is where a group is joined. X1 = O=C1C[C@@H](C(=O)[*:2])N([*:1])C[C@H]1CS[C@@H]1CN2CCC1CC2; NMePhe(4-NMe2) = CN[C@@H](Cc1ccc(N(C)C)cc1)C(=O)O; Picolinoyl(3-OH) = O=C(c1ncccc1O)*; Phg = N[C@H](C(=O)O)c1ccccc1; dAbu = CC[C@@H](N)C(=O)O

## Input Which MIC90 is reported for this compound? CCN(CC)CCS(=O)(=O)[C@@H]1CCN2C(=O)c3coc(n3)CC(=O)C[C@H](O)/C=C(C)/C=C/CNC(=O)/C=C/[C@@H](C)[C@@H](C(C)C)OC(=O)[C@@H]12.CC[C@H]1NC(=O)[C@@H](NC(=O)c2ncccc2O)[C@@H](C)OC(=O)[C@H](c2ccccc2)NC(=O)[C@@H]2CC(=O)[C@H](CS[C@@H]3CN4CCC3CC4)CN2C(=O)[C@H](Cc2ccc(N(C)C)cc2)N(C)C(=O)[C@@H]2CCCN2C1=O [QUINUPRISTIN/DALFOPRISTIN] ({Picolinoyl(3-OH)}-T[dAbu]P[NMePhe(4-NMe2)][X1][Phg]; ester 1-C)
## Output 0.5 µg/mL

## Input Which MIC90 is reported for this compound? CO/N=C1\CN(c2nc3c(cc2F)c(=O)c(C(=O)O)cn3C2CC2)CC1CN (stereo not given) [GEMIFLOXACIN]
## Output 32 µg/mL

## Input Which MIC90 is reported for this compound? NCC[C@H](O)C(=O)N[C@@H]1C[C@H](N)[C@@H](O[C@H]2O[C@H](CN)CC[C@H]2N)[C@H](O)[C@H]1O[C@H]1O[C@H](CO)[C@@H](O)[C@H](N)[C@H]1O [ARBEKACIN]
## Output 32 µg/mL

## Input Which MIC90 is reported for this compound? CN[C@H](CC(C)C)C(=O)N[C@H]1C(=O)N[C@@H](CC(N)=O)C(=O)N[C@H]2C(=O)N[C@H]3C(=O)N[C@H](C(=O)N[C@H](C(=O)O)c4cc(O)cc(O)c4-c4cc3ccc4O)[C@H](O)c3ccc(c(Cl)c3)Oc3cc2cc(c3O[C@@H]2O[C@H](CO)[C@@H](O)[C@H](O)[C@H]2O[C@H]2C[C@](C)(N)[C@H](O)[C@H](C)O2)Oc2ccc(cc2Cl)[C@H]1O [VANCOMYCIN]
## Output 2 µg/mL

## Input Which MIC90 is reported for this compound? CC(=O)NCC1CN(c2ccc(N3CCOCC3)c(F)c2)C(=O)O1 (single isomer, unassigned) [LINEZOLID]
## Output 2 µg/mL

====

test: Total concentration in liver was determined after 6 hr of intravenous administration to rats (n=4) at dose of 20 mg/kg; format: ADME, organism-based; parameters: time < 6 hr, dose 20 mg/kg, route intravenous; settings: rat
readout_type: AUC at 6 h (ng·h/mL)
Express your answer in ng·h/mL, writing the number without its unit.

## Input Which AUC at 6 h is reported for this molecule? "Cc1c(N2C[C@@H](F)[C@@H](C3(N)CC3)C2)c(F)c(N)c2c(=O)c(C(=O)O)cn([C@@H]3C[C@@H]3F)c12"
## Output 36000

====

system: Klebsiella pneumoniae; assay: Antibacterial activity was determined against Klebsiella pneumoniae type II strain after incubation at 37 degrees C for 18 h; assay type: functional
readout_type: MIC (µg/mL)
Express your answer in µg/mL, writing the number without its unit.

## Input Which MIC is reported for this compound? COc1c(N2CCNC(C)C2)c(F)cc2c(=O)c(C(=O)O)cn(C3CC3)c12 (configuration not stated)
## Output 0.05

## Input Which MIC is reported for this compound? "COc1c(N2C[C@@H]3CCCN[C@@H]3C2)c(F)cc2c(=O)c(C(=O)O)cn(C3CC3)c12"
## Output 0.025

## Input Which MIC is reported for this compound? "Cc1c(N2CC[C@@H](C3(N)CC3)C2)c(F)c(N)c2c(=O)c(C(=O)O)cn([C@@H]3C[C@@H]3F)c12"
## Output 0.025

## Input Which MIC is reported for this compound? Cc1c(N2CC[C@@H](CN)C2)c(F)c(N)c2c(=O)c(C(=O)O)cn(C3C[C@@H]3F)c12 (single isomer, unassigned)
## Output 0.1

## Input Which MIC is reported for this compound? "O=C(O)c1cn(C2CC2)c2cc(N3CCNCC3)c(F)cc2c1=O"
## Output 0.025

## Input Which MIC is reported for this compound? "Cc1c(N2C[C@@H](F)[C@@H](C3(N)CC3)C2)c(F)c(N)c2c(=O)c(C(=O)O)cn([C@@H]3C[C@@H]3F)c12"
## Output 0.013

## Input Which MIC is reported for this compound? "Cc1c(N2C[C@H](F)[C@@H](C3(N)CC3)C2)c(F)c(N)c2c(=O)c(C(=O)O)cn([C@@H]3C[C@@H]3F)c12"
## Output 0.013
